Values were extracted from the supplement of paper PMC6555819.

Test system: VDR homodimer (NR concentration 270 nM)
assayComment: PBM binding z-score (relative to random genomic background probes); higher = stronger binding; sequences stand for … in GC…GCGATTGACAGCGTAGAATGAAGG
measure: PBM binding z-score
Answer field: number only, no words.

These solved cases illustrate the format of a correct answer.
PBM binding z-score for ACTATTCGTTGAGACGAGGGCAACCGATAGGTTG is 0.643

The sequence GGAACGAGGGCACGTTGATAGCAGAGTTTGATGG showed PBM binding z-score equal to 1.03

Given item CCGAGTAGGTTATGGGGCATGCAGGCAACGGTGA , the value recorded as its PBM binding z-score is -0.0729

// PBM binding z-score value for CCGACTGGGGCATAAGTTTACCATAAGCCAGCCC : -0.134

For record CCAGACAGGTGAAAGGGAACTCAGTCTGGTACGC the listed PBM binding z-score is 0.0555

Documented PBM binding z-score of CAAACTAGGTCTAAGGTCAAAGTCGAGCCAACCA : 3.63

New cases:
Lab book: PBM binding z-score of ACAGAGAGGTGATGAAGGTAACTCAGGCTATCAT noted as -0.222

// recorded PBM binding z-score for TCGAGTAGGTTAGCCGGGGCATTCAGCCAACATA : -0.000725

response.value for AATACAGGGTCACTAGGCCAGAGAAGGTACGAAT (field: PBM binding z-score) = 2.31

---

Test system: LXRa:RXRa (NR concentration 270 nM, RXRa partner concentration 90 nM)
assayComment: PBM binding z-score (relative to random genomic background probes); higher = stronger binding; sequences stand for … in GC…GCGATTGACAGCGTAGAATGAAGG
Label MET when PBM binding z-score is at or above 2; otherwise label NOT MET.

As a guide, the following entries are already answered.
Does the sequence AATACAGGCTCACTAGGCCAGAGTAGGTACGAAT have recorded PBM binding z-score that is 2 or more? NOT MET

State whether the measured PBM binding z-score reaches 2, counting equality as reaching it, for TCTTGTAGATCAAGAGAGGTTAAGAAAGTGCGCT MET

Further cases:
Identify whether the reported PBM binding z-score of the following sequence is 2 or greater: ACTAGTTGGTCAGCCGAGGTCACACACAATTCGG MET

Exam item: decide whether the reported PBM binding z-score for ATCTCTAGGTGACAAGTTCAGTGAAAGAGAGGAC is at least 2. NOT MET

Item CCTACTGGGCGAAAGGTCATTGATTCCAATGCTC with PBM binding z-score of 2 or above? MET

Say whether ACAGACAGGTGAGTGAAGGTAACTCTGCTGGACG shows PBM binding z-score of 2 or more. NOT MET

Tell me whether PBM binding z-score is at least 2 here: CGTCAAATTTCAAGGTAACGTAACAGAAAGCAGC NOT MET

Does PBM binding z-score meet or surpass 2 for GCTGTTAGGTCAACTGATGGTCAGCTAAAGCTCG ? MET

Quick check: does ACTATAAGTTGAGACGAGGGCAACCGATAGGTTG have PBM binding z-score greater than or equal to 2? NOT MET

---

Tested on: LXRa homodimer (NR concentration 270 nM)
assayComment: PBM binding z-score (relative to random genomic background probes); higher = stronger binding; sequences stand for … in GC…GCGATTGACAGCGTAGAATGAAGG
Each entry below carries its reported PBM binding z-score.
Returns: the value as a bare number; no unit string appended.

Solved cases below.
For ATATGTAGGTTAAGGGGCATTCAGGTTGGTTCGC the sequence record lists PBM binding z-score as 1.15

For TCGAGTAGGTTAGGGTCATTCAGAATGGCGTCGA the sequence record lists PBM binding z-score as 0.537

Entry TGAATGAGGTTAAACATCAGGGAACGTGGCGTCG — recorded PBM binding z-score = -0.0319

// PBM binding z-score lookup, sequence = GTAACGAGGGCATTCGAGTTGATAGCATGGCGAT , result: -0.134

According to the records, this sequence ATCGAAAGGTCGAAGGCGAGTATACCCACCCGAA displays PBM binding z-score of 0.25

***
The sequence identified as CCTGCTGGGCCATTCAGAGGTCATTGATCATATG registered its PBM binding z-score at 6.46

For TCATATAGGTAAAAAGGTGAAAGTCCGTAAGTTA the sequence record lists PBM binding z-score as 0.558

Sample CATACAGGGTCAGCGAGGCCAGAGTAGGGACGGC ; PBM binding z-score observed: -0.392

The sequence AGTCAAAGTTCACTAGGTAATGTAAGATTCAGCT showed PBM binding z-score equal to 2.91

Value of measured PBM binding z-score for the entry GCGACTGGGGTAAAGCAGGTTACCATAAGGTTGG : -0.396

The reported value for CATACAGGGTCAGCAAGGCCAGAGTAGGGACGGC in terms of PBM binding z-score is -0.0417

For reference, reported PBM binding z-score for CCTTACGGGTCACTGACAGGTTATAGGATTTGGA stands at 0.341

Reported PBM binding z-score for ATTGAAAGGTCGTGAGGTGAGTATACAGAAAGGC was 0.73

So, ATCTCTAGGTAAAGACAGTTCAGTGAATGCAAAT ? Its PBM binding z-score was 0.934

PBM binding z-score for TCAGACAGATGAAGGTAACTCAGGTACGCAGTCG is -0.272

Noted for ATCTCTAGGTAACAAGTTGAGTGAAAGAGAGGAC : its PBM binding z-score reads 0.274

Looking up CCTCGGAGGACGGAAGGTCAGAGCTGTCCGCTTT , I found its PBM binding z-score recorded as -0.129

Per the record, CCTAGCAGGCCAATCTGGGTCACTCAAGGCTTGA has PBM binding z-score of -0.498

For record TCTGGTAGATCAACAGGAGGTTAAGAAAGATCGA the listed PBM binding z-score is 0.187

Looking up CCTACTGGGACAAAAAGGTCATTGATGCCGATAA , I found its PBM binding z-score recorded as 4.09

The recorded PBM binding z-score for entry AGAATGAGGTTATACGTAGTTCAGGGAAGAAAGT equals 0.289

---

Test system: THRa homodimer (NR concentration 90 nM)
assayComment: PBM binding z-score (relative to random genomic background probes); higher = stronger binding; sequences stand for … in GC…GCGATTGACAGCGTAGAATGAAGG
Response key: condition met means PBM binding z-score >= 0.2; condition not met means PBM binding z-score < 0.2.

Decide: PBM binding z-score of GGAACGAGGGCATCCGAGTTGATAGCATGGCGAT >= 0.2? condition not met

Could you verify whether the entry CGAACGAGGGCATGAGTTGTTAGCAAATGCCGAT shows PBM binding z-score of no less than 0.2? condition not met

Can ACATGTAGGTTAGCTGGGGTCATTCAGACTAGGC be said to have PBM binding z-score at or above 0.2? condition met

Is PBM binding z-score for CGCCCAAGGTCAATGCTAGGTCAGTGAAAGCATT at or above 0.2? condition met

Check if PBM binding z-score >= 0.2 (inclusive). Item: CAAACTAGGTCACAGAGGTCACAGTCCGTGCGTA condition met

Textbook exercise: given the entry CCGATTGGGGCAAGGTTACCATAACGCACAGCCA , state whether its PBM binding z-score is greater than or equal to 0.2. condition met

Tell me whether PBM binding z-score is at least 0.2 here: CGTCCAAGGTCAAGGTCAGTTAAAGAGACTCGAA condition met

For this sequence, is measured PBM binding z-score 0.2 or higher? GCTGCTAGGTCAACTGATGGTCAGCGAAAGCTCG condition met

Given the entry CCGACTGGGGCAACGTTACCATAACGCACAGCCA , answer whether its PBM binding z-score meets or surpasses 0.2. condition not met

# bool: PBM binding z-score of ACTATTAGTTGACTTAGCGCAACCGATACGACGC >= 0.2 condition not met

New cases:
Is PBM binding z-score at least 0.2? Consider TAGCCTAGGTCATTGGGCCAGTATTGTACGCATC condition met

For this sequence, is measured PBM binding z-score 0.2 or higher? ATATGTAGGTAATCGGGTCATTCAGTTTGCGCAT condition met

Record CCTATTAGTTGATCATAAGGGCAACCGAAGCTCG ; criterion: PBM binding z-score no lower than 0.2. Met? condition met

---

Tested on: RARg homodimer (NR concentration 270 nM)
assayComment: PBM binding z-score (relative to random genomic background probes); higher = stronger binding; sequences stand for … in GC…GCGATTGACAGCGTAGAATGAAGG
measure: PBM binding z-score

Examples with answers:
According to the records, this sequence ACTATTAGTTCAGACGAGGGCAACCGATAGGTTG displays PBM binding z-score of 1.88

Summary for this sequence, CCTTGTTGGTCAGGAGGTCACACACCGGATATGA : PBM binding z-score is 4.32

// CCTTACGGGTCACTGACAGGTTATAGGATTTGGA : PBM binding z-score value = 4.77

Input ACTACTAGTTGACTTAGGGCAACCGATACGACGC . Output PBM binding z-score: 0.625

Next:
Note to self: PBM binding z-score recorded for ACTTACGGGTCAACGAGGTTATAGGACGCGTATA was 5.28

Measured PBM binding z-score of GCTTGTTGGTCAGTAAAAGGTCACACACCGGTCG : 4.67
